- testName: Solubility assay (kinetic solubility, PBS pH 7)
- Format: physicochemical
- experimentalSetup: pH 7, aqueous buffer, kinetic from dmso stock, pH 7, PBS; read-out: Solubility
parameterMeasured: solubility kinetic

[[record]]
molecule = "CC(=O)N[C@@H](CCCCN=[N+]=[N-])C(=O)NCCC(=O)N[C@@H](CC(C)C)C(=O)N[C@H](C(=O)N[C@@H](Cc1ccccc1)C(=O)N[C@]1(C)CCCCCCC=CCCC[C@@](C)(C(=O)N[C@@H](CO)C(=O)N[C@@H](C)C(=O)N[C@@H](C)C(N)=O)NC(=O)[C@H](CC2CCC2)NC(=O)[C@H](CCC(N)=O)NC(=O)C(C)(C)NC(=O)[C@H](Cc2c[nH]c3ccccc23)NC(=O)[C@H](Cc2ccc(O)cc2)NC(=O)[C@H](CCC(=O)O)NC1=O)[C@@H](C)O [MP-170]"
parametermeasured = "solubility kinetic"
measurement = "92.5 µM"

[[record]]
molecule = "CC(=O)N[C@@H](CCCCN=[N+]=[N-])C(=O)NCCC(=O)N[C@@H](CC(C)C)C(=O)N[C@H](C(=O)N[C@@H](Cc1ccccc1)C(=O)N[C@]1(C)CCCCCCC=CCCC[C@@](C)(C(=O)N[C@@H](CO)C(=O)N[C@@H](C)C(=O)N[C@@H](C)C(N)=O)NC(=O)[C@H](CC2CCC2)NC(=O)[C@H](Cc2c[nH]cn2)NC(=O)[C@H](C)NC(=O)[C@H](Cc2c[nH]c3ccccc23)NC(=O)[C@H](Cc2ccc(O)cc2)NC(=O)[C@H](CCC(=O)O)NC1=O)[C@@H](C)O [MP-176, AZIDE-ATSP-7041 (Q9H)]"
parametermeasured = "solubility kinetic"
measurement = "2 µM"


---

- testName: Solubility assay (kinetic solubility, PBS pH 7)
- Assay type: physicochemical
- experimentalSetup: pH 7, aqueous buffer, kinetic from dmso stock, pH 7, PBS; read-out: Solubility
parameterMeasured: solubility kinetic (µM)

[[record]]
compound = "CC(=O)N[C@@H](CCCCN=[N+]=[N-])C(=O)NCCC(=O)N[C@@H](CC(C)C)C(=O)N[C@H](C(=O)N[C@@H](Cc1ccccc1)C(=O)N[C@]1(C)CCCCCCC=CCCC[C@@](C)(C(=O)N[C@@H](CCC(=O)O)C(=O)N[C@@H](C)C(=O)N[C@@H](C)C(N)=O)NC(=O)[C@H](CC2CCC2)NC(=O)[C@H](CCC(N)=O)NC(=O)[C@H](C)NC(=O)[C@H](Cc2c[nH]c3ccccc23)NC(=O)[C@H](Cc2ccc(O)cc2)NC(=O)[C@H](CCC(=O)O)NC1=O)[C@@H](C)O [MP-182]"
quantityunit = "µM"
measurement = 163


---

- System: HCT116 cells
- testName: Lactate dehydrogenase (LDH) release assay
- Type: cell-based
- Procedure: HCT116 cells were stably transfected with a p53 responsive β-lactamase reporter and expanded in McCoy’s 5 A Medium with 10% fetal bovine serum (FBS), Blasticidin, and Penicillin/Streptomycin and then transferred to 1.5 ml freezing vials and stored under liquid nitrogen in growth media containing 5% DMSO. […] Lactate dehydrogenase release was detected using the CytoTox-ONE Homogenous Membrane Integrity Assay Kit (Promega), as per the manufacturer’s instructions. […]
Positions of bridges follow the written chain, without caps; N, C: chain ends. Non-standard residues stand in square brackets, D forms with d. Residues, ends and D or L forms follow the SMILES beside them. Lys(N3) = [N-]=[N+]=NCCCC[C@H](N)C(=O)O; R8 = C=CCCCCCC[C@@](C)(N)C(=O)O; Cba = N[C@@H](CC1CCC1)C(=O)O; S5 = C=CCCC[C@](C)(N)C(=O)O; βAla = NCCC(=O)O
parameterMeasured: LDH: Cytotoxicity assay: % Effect

[[record]]
compound = "CC(=O)N[C@@H](CCCCN=[N+]=[N-])C(=O)N[C@@H](CC(C)C)C(=O)N[C@H](C(=O)N[C@@H](Cc1ccccc1)C(=O)N[C@]1(C)CCCCCCC=CCCC[C@@](C)(C(=O)N[C@@H](CCC(=O)O)C(N)=O)NC(=O)[C@H](CC2CCC2)NC(=O)[C@H](CCC(N)=O)NC(=O)[C@H](C)NC(=O)[C@H](Cc2c[nH]c3ccccc23)NC(=O)[C@H](Cc2ccc(O)cc2)NC(=O)[C@H](CCC(=O)O)NC1=O)[C@@H](C)O [MP-4008] (Ac-[Lys(N3)]LTF[R8]EYWAQ[Cba][S5]E-NH2; staple 5-12)"
measurement = "-0.7368%"

[[record]]
compound = "CC(=O)N[C@@H](CCCCN=[N+]=[N-])C(=O)NCCC(=O)NCC(=O)N[C@H](C(=O)N[C@@H](Cc1ccccc1)C(=O)N[C@]1(C)CCCCCCC=CCCC[C@@](C)(C(=O)N[C@@H](CO)C(=O)N[C@@H](C)C(=O)N[C@@H](C)C(N)=O)NC(=O)[C@H](CC2CCC2)NC(=O)[C@H](CCC(N)=O)NC(=O)[C@H](C)NC(=O)[C@H](Cc2c[nH]c3ccccc23)NC(=O)[C@H](Cc2ccc(O)cc2)NC(=O)[C@H](CCC(=O)O)NC1=O)[C@@H](C)O [MP-261] (Ac-[Lys(N3)][βAla]GTF[R8]EYWAQ[Cba][S5]SAA-NH2; staple 6-13)"
measurement = "8.826%"

[[record]]
compound = "CC(=O)N[C@@H](CC(C)C)C(=O)N[C@H](C(=O)N[C@@H](Cc1ccccc1)C(=O)N[C@]1(C)CCCCCCC=CCCC[C@@](C)(C(=O)N[C@@H](CO)C(=O)N[C@@H](C)C(=O)N[C@@H](C)C(N)=O)NC(=O)[C@H](CC2CCC2)NC(=O)[C@H](CC(C)C)NC(=O)[C@H](CCC(N)=O)NC(=O)[C@@H](Cc2c[nH]c3ccccc23)NC(=O)[C@H](Cc2ccc(O)cc2)NC(=O)[C@H](CCC(=O)O)NC1=O)[C@@H](C)O"
measurement = "35.22%"

[[record]]
compound = "CC(=O)N[C@@H](CCCCN=[N+]=[N-])C(=O)NCCC(=O)N[C@@H](CC(C)C)C(=O)N[C@H](C(=O)N[C@@H](Cc1ccccc1)C(=O)N[C@]1(C)CCCCCCC=CCCC[C@@](C)(C(=O)N[C@@H](CO)C(=O)N(C)[C@@H](C)C(=O)N[C@@H](C)C(N)=O)NC(=O)[C@H](CC2CCC2)NC(=O)[C@H](CCC(N)=O)NC(=O)[C@H](C)NC(=O)[C@H](Cc2c[nH]c3ccccc23)NC(=O)[C@H](Cc2ccc(O)cc2)NC(=O)[C@H](CCC(=O)O)NC1=O)[C@@H](C)O"
measurement = "1.89%"

[[record]]
compound = "CC(=O)N[C@@H](CCCCN=[N+]=[N-])C(=O)N[C@@H](CCCCN)C(=O)N[C@@H](CC(C)C)C(=O)N[C@H](C(=O)N[C@@H](Cc1ccccc1)C(=O)N[C@]1(C)CCCCCCC=CCCC[C@@](C)(C(=O)N[C@@H](CO)C(=O)N[C@@H](C)C(=O)N[C@@H](C)C(N)=O)NC(=O)[C@H](CC2CCC2)NC(=O)[C@H](CCC(N)=O)NC(=O)[C@H](C)NC(=O)[C@H](Cc2c[nH]c3ccccc23)NC(=O)[C@H](Cc2ccc(O)cc2)NC(=O)[C@H](CCC(=O)O)NC1=O)[C@@H](C)O"
measurement = "3.386%"

[[record]]
compound = "CC(=O)N[C@@H](CC(C)C)C(=O)N[C@H](C(=O)N[C@@H](C)C(=O)N[C@]1(C)CCCCCCC=CCCC[C@@](C)(C(=O)N[C@@H](CO)C(=O)N[C@@H](C)C(=O)N[C@H](C)C(N)=O)NC(=O)[C@H](CC2CCC2)NC(=O)[C@H](CC(C)C)NC(=O)[C@H](CCC(N)=O)NC(=O)[C@H](Cc2c[nH]c3ccccc23)NC(=O)[C@H](Cc2ccc(O)cc2)NC(=O)[C@H](CCC(=O)O)NC1=O)[C@@H](C)O [MP-671] (Ac-LTA[R8]EYWQL[Cba][S5]SA[dA]-NH2; staple 4-11)"
measurement = "3.06%"

[[record]]
compound = "CC(=O)N[C@@H](CCCCN=[N+]=[N-])C(=O)N[C@@H](CCCCN)C(=O)N[C@@H](CCCCN)C(=O)N[C@@H](CC(C)C)C(=O)N[C@H](C(=O)N[C@@H](Cc1ccccc1)C(=O)N[C@]1(C)CCCCCCC=CCCC[C@@](C)(C(=O)N[C@@H](CO)C(=O)N[C@@H](C)C(=O)N[C@@H](C)C(N)=O)NC(=O)[C@H](CC2CCC2)NC(=O)[C@H](CCC(N)=O)NC(=O)[C@H](C)NC(=O)[C@H](Cc2c[nH]c3ccccc23)NC(=O)[C@H](Cc2ccc(O)cc2)NC(=O)[C@H](CCC(=O)O)NC1=O)[C@@H](C)O"
measurement = "25.62%"

[[record]]
compound = "CC(=O)N[C@@H](CCC(=O)O)C(=O)N[C@@H](CCCCN=[N+]=[N-])C(=O)NCCCCCC(=O)N[C@H](C(=O)N[C@@H](CO)C(=O)N[C@@H](Cc1ccccc1)C(=O)N[C@]1(C)CCCCCCC=CCCC[C@@](C)(C(N)=O)NC(=O)[C@H](CC(C)C)NC(=O)[C@H](CC(C)C)NC(=O)[C@H](C)NC(=O)[C@H](Cc2c[nH]c3ccccc23)NC(=O)[C@H](Cc2ccc(O)cc2)NC(=O)[C@H](CCC(=O)O)NC1=O)[C@@H](C)O"
measurement = "2.385%"

[[record]]
compound = "CC(=O)N[C@@H](CC(C)C)C(=O)N[C@H](C(=O)N[C@@H](Cc1ccccc1)C(=O)NC(C)(C)C(=O)N[C@@H](CCC(=O)O)C(=O)N[C@@H](Cc1ccc(O)cc1)C(=O)N[C@@H](Cc1c[nH]c2ccccc12)C(=O)N[C@H](CCC(N)=O)C(=O)N[C@@H](CC(C)C)C(=O)N[C@@H](CC1CCC1)C(=O)NC(C)(C)C(=O)N[C@@H](CO)C(=O)N[C@@H](C)C(=O)N[C@@H](C)C(N)=O)[C@@H](C)O"
measurement = "7.785%"

